test system: A2780, epithelial human ovarian cancer; test: Clonogenic assay, A2780 cells; format: cell-based; details: A2780, 24 hours treatment
Metric: pIC50
Scale note: pIC50 = -log10(concentration in M).

N.N.[Cl][Pt][Cl] [cisplatin] :: 5.30

Consider the molecule shown here: NC1CCCCC1N.O=P([O-])(O)OP(=O)([O-])O.[Pt+2] (racemic) [trans-(±)-pyrodach-2] What is its recorded pIC50? 5.62

---

tested on: breast cancer cell line HCC1806; test: 144 hour exposure IC50, HCC1806; type: cell-based; conditions: HCC1806, 144 hours exposure
pIC50: −log10 of the molar value.
Metric: pIC50

Using the record for NC1CCCCC1N.O=P([O-])(O)OP(=O)([O-])O.[Pt+2] (racemic) [trans-(±)-pyrodach-2] , report its pIC50. < 4.52

---

test system: human colon cancer cell lines (HT-29); test: CyQUANT cell proliferation assay, HT-29; assay type: cell-based; settings: HT-29, 72 hours
Metric: IC50 (µM)
Quick reminder: number only, in µM, skip the unit.

Form field: reported IC50 of N.N.[Cl][Pt][Cl] [cisplatin] 6.5

---

test system: OVCAR-5, advanced human ovarian cancer cells; assay: Clonogenic assay, OVCAR-5 cells; format: cell-based; settings: OVCAR-5, 24 hours treatment
Metric: IC50 (µM)
Give just the number in µM; leave the unit off.

Using the record for NC1CCCCC1N.O=P([O-])(O)OP(=O)([O-])O.[Pt+2] (racemic) [trans-(±)-pyrodach-2] , report its IC50. 12.2
